Reported koff is given for each of the following binders.
Molecular target: T1, human MSLN-FL-his protein (human, UniProt Q13421 296-580)
T1 construct: made in HEK293E cells, purified on nickel column; also called hMSLN-FL-his; human MSLN full-length protein; not shown: His tag
T1 sequence (Q13421 other isoform, or with tags, fused parts or gaps): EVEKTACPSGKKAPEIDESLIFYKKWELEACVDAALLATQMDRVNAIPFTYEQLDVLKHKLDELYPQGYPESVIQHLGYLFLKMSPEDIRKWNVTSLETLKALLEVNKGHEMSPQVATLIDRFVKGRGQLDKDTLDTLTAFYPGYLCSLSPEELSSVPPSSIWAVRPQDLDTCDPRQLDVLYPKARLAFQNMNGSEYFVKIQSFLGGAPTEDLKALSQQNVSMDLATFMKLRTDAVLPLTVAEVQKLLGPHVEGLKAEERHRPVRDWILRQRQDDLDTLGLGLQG
Assay: SPR (Biacore), antibody captured on Protein A chip;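 also: flow cell at 25 °C, antigen injected for 240 s at five concentrations from 200 nM downward, dissociation followed up to 600 s, double-referenced, fitted with Langmuir 1:1 model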
Expressed in s⁻¹, but write only the number.

Some solved cases for reference:
binder="S009-F8-22.23 (antibody, human IgG1, kappa, V domains shown, human-murine chimeric antibody, human IgG1/kappa constant regions) VH: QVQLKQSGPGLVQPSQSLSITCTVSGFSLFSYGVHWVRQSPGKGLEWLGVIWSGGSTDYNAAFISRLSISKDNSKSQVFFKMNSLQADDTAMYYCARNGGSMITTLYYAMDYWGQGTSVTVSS VL: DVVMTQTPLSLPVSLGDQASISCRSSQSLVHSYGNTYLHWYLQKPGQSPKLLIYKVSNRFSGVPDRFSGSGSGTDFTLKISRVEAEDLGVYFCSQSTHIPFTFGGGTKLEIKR" parameter=koff readout_unit=s⁻¹ reported_value=0.00275
binder="S009-F7.69.8 (antibody, human IgG1, kappa, V domains shown, human-murine chimeric antibody, human IgG1/kappa constant regions) VH: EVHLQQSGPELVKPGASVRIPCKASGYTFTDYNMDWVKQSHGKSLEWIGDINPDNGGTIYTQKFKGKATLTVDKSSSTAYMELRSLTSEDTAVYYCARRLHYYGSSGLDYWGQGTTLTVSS VL: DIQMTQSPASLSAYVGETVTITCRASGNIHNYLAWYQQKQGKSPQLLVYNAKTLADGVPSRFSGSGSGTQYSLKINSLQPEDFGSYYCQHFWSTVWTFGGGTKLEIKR" parameter=koff readout_unit=s⁻¹ reported_value=0.00447

Need koff, item S009-F8-36.12 (antibody, human IgG1, kappa, V domains shown, human-murine chimeric antibody, human IgG1/kappa constant regions) VH: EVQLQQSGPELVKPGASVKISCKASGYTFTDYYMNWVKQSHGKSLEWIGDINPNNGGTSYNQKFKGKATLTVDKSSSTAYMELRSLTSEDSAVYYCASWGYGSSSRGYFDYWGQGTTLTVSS VL: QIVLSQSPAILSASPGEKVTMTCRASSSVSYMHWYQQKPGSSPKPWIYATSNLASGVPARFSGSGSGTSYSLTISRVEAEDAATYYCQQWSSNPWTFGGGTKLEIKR
0.0122
